test.method.notes: Toxicokinetics in the 28-day study
Assay type: in vivo, mice
setup.conditions: male, CD1, mouse, in vivo, po, 80 mg/kg, male mice; 80 mg/kg; Day 0
measure: Tmax

Query block: What value of Tmax has been reported for the following compound? c1coc(CNc2ncnc3[nH]cnc23)c1 [MB-905, kinetin]
Result block: 15 min

###

test.method.notes: Toxicokinetics in the 28-day study
Format: in vivo, mice
setup.conditions: female, CD1, mouse, in vivo, po, 250 mg/kg, female mice; 250 mg/kg; Day 0
measure: AUC
Form field: result (number plus unit)

Query block: What value of AUC has been reported for the following compound? c1coc(CNc2ncnc3[nH]cnc23)c1 [MB-905, kinetin]
Result block: 4910 ng·h/mL

###

test.method.notes: Cytotoxicity assay (XTT) in Huh-7 cells
Format: cell-based
setup.conditions: human
For each record, write down the corresponding CC50 at 3 days.
One number for each entry, in µM.

Your task in this section: give CC50 at 3 days for each listed record.
1. c1coc(CNc2ncnc3[nH]cnc23)c1
2. C/C(=C\CNc1ncnc2c1ncn2[C@@H]1O[C@H](CO)[C@@H](O)[C@H]1O)CO [MB-804, zeatin riboside]
3. OC[C@H]1O[C@@H](n2cnc3c(NCc4ccco4)ncnc32)[C@H](O)[C@@H]1O [MB-801, kinetin riboside]
4. CCC(CC)COC(=O)[C@H](C)N[P@](=O)(OC[C@H]1O[C@@](C#N)(c2ccc3c(N)ncnn23)[C@H](O)[C@@H]1O)Oc1ccccc1 [Remdesivir, reference compound]
5. C/C(=C\CNc1ncnc2[nH]cnc12)CO

Result block:
560
550
229
280
600

###

test.method.notes: Pharmacokinetics of MB-905 in plasma of mice
setup.conditions: both, CD1, mouse, plasma, iv, 3 mg/kg
measure: Vd (L/kg)
Answers are plain numbers, in L/kg.

Query block: What value of Vd has been reported for the following molecule? c1coc(CNc2ncnc3[nH]cnc23)c1 [MB-905, kinetin]
Result block: 19.4

###

test.method.notes: Pharmacokinetics of MB-905 in three pre-formulations in mice
Assay type: in vivo
setup.conditions: mouse, plasma, po, 3 mg/kg, 5% ethanol, 30% Propylene Glycol, 45% PEG 400, 20% water, 3 mg/kg (v.o.)
measure: half-life
Form field: result (number plus unit)

Query block: What value of half-life has been reported for the following compound? c1coc(CNc2ncnc3[nH]cnc23)c1 [MB-905, kinetin]
Result block: 1.92 h

###

test.method.notes: Cytotoxicity assay (XTT) in Calu-3 cells
Format: cell-based, human
setup.conditions: human, Calu-3, single moment treatment
measure: CC50 at 3 days
Form field: result (number plus unit)

molecule="C/C(=C\\CNc1ncnc2c1ncn2[C@@H]1O[C@H](CO)[C@@H](O)[C@H]1O)CO [MB-804, zeatin riboside]" observed_result="580 µM"

Query block: What value of CC50 at 3 days has been reported for the following molecule? CC(C)OC(=O)[C@H](C)NP(=O)(OC[C@H]1O[C@@H](n2cnc3c(NCc4ccco4)ncnc32)[C@H](O)[C@@H]1O)Oc1ccccc1 (some centres unmarked) [MB-711, kinetin riboside monophosphoramidate]
Result block: 562 µM

###

test.method.notes: Pharmacokinetics of MB-905 in three pre-formulations in mice
Assay type: in vivo
setup.conditions: CD1, mouse, plasma, po, 3 mg/kg, 5% Carboxymethylcellulose, 3 mg/kg (v.o.)
measure: Tmax (min)
Give bare numbers, in min.

Query block: What value of Tmax has been reported for the following compound? c1coc(CNc2ncnc3[nH]cnc23)c1
Result block: 15

Origin of the recorded values: patent US20240207302A1
